# System: NCI-H522 lung
# assay: NCI-60 one-dose screen, 48 h
# conditions: 10 µM unless noted
Compounds without any hit were thinned out: in the full panel of roughly 83,000, 20% have a hit. Activity calls are given as the source filed them. How the source made its calls: active means growth percent below 10; inactive means the rest.
Choose the fitting class; nothing outside active, inactive is accepted.

Field: example entries. Status: answers known.
{"molecule": "O=C1NN(C(=O)c2ccccc2)C(c2ccc(Cl)c(Cl)c2)=C/C1=C\\c1ccccc1[N+](=O)[O-]", "class_label": "active"}
{"molecule": "CN1C2CCC1/C(=C\\c1ccc(F)cc1)C(=O)/C2=C/c1ccc(F)cc1", "class_label": "inactive"}
{"molecule": "COc1cc(C2CC(c3ccc(C)cc3)=NN2C=O)ccc1Oc1ccnc2cc(Cl)ccc12 (stereo not given)", "class_label": "inactive"}
{"molecule": "Clc1ccc(-c2nc(-c3cccs3)no2)cc1", "class_label": "inactive"}
{"molecule": "CC(=O)Oc1c(Cl)c(Cl)c(Cl)c(Cl)c1Cl", "class_label": "inactive"}
{"molecule": "CCC(=O)NC1=C(Cl)C(=O)C(NC(=O)CC)=C(Cl)C1=O", "class_label": "active"}
{"molecule": "CS(=O)(=O)c1ccc(C(=O)N/N=C/c2ccccc2Cl)cc1", "class_label": "inactive"}
{"molecule": "COc1cc(-c2nc(-c3ccc(-c4nc5ccc(F)cc5[nH]4)cc3)no2)cc(OC)c1OC", "class_label": "inactive"}

Query :: State the result this test recorded for C[C@@H]1N=C(c2ccc3ccccc3c2)Nc2nc3ccccn3c2C1=O .
Result :: inactive

Query :: State the result this test recorded for CC(C)(C)c1ccc(C(=O)Nc2sc3cc(O)ccc3c2C(N)=O)cc1 .
Result :: inactive

Query :: State the result this test recorded for NC(N)=N/N=C/c1cccc(Cl)c1Cl .
Result :: inactive

Query :: State the result this test recorded for c1csc(-c2cnc3nonc3n2)c1 .
Result :: inactive

Query :: State the result this test recorded for CC1(C)OC2OC3C(CN)OC(c4ccccc4)OC3C2O1 (stereo not given) .
Result :: inactive

Query :: State the result this test recorded for CC(SC(C)C(=O)N/N=C/c1cccc(Cl)c1)C(=O)N/N=C\c1cccc(Cl)c1 (stereo not given) .
Result :: inactive

Query :: State the result this test recorded for COc1ccc2c(c1)C1=NN(C(=O)CO)[C@H](c3ccc(OC(F)(F)F)cc3)[C@@H]1CC2 .
Result :: inactive

Query :: State the result this test recorded for COc1cc(Nc2ncccc2/C=C/C(=O)c2cc(OC)c(OC)c(OC)c2)cc(OC)c1OC .
Result :: inactive

Query :: State the result this test recorded for Nc1cc(C(=O)O)cc(C(=O)O)c1 .
Result :: inactive

Query :: State the result this test recorded for COc1ccc2nc3ccccc3c(NCc3ccc(Cl)cc3)c2c1 .
Result :: inactive

Query :: State the result this test recorded for O=c1c2cc(Br)cc(Br)c2nc(-c2ccc(Cl)cc2)n1/N=C/c1cccc(F)c1 .
Result :: inactive

Query :: State the result this test recorded for O=C1OCC2=C1C(c1ccccc1)c1cc3c(cc1N2CCO)OCO3 (stereo not given) .
Result :: active

Query :: State the result this test recorded for Cc1cc(O)ccc1Sc1ccccc1[N+](=O)[O-] .
Result :: inactive

Query :: State the result this test recorded for Clc1nnc2c3ccccc3ccn12 .
Result :: inactive

Query :: State the result this test recorded for COc1nccc2c(Sc3ccccc3)nc(N)nc12 .
Result :: inactive

Query :: State the result this test recorded for CCCCOc1nc2ccc(C)cc2cc1/C=C/C(=O)/C=C(O)/C=C/c1cc2cc(C)ccc2nc1OCCCC .
Result :: inactive

Query :: State the result this test recorded for CCCCCCCC/C=C/CCCCCCCC1=NC(C)(C)CN1C(C)C .
Result :: active

Query :: State the result this test recorded for C[C@H](NC(=O)c1snnc1C1CC1)c1c(F)cccc1Cl .
Result :: inactive

Query :: State the result this test recorded for COc1ccccc1/C=N\Nc1ccc([N+](=O)[O-])cn1 .
Result :: inactive

Query :: State the result this test recorded for C=C(COC(C)=O)[C@H]1CC/C(C)=C/CC/C(C)=C/CC[C@@]2(C)O[C@H]2C1 .
Result :: inactive

Query :: State the result this test recorded for COc1ccc(-c2cnnn2-c2nonc2-n2cccc2)cc1 .
Result :: active

Query :: State the result this test recorded for COc1cc(C2CC(c3ccccc3)=NN2C=O)ccc1Oc1ccnc2cc(Cl)ccc12 (stereo not given) .
Result :: inactive

====

# Test system: SF-539 CNS
# assay: NCI-60 one-dose screen, 48 h (100 = growth as untreated, 0 = no growth, -100 = all killed)
# conditions: 10 µM unless noted
The panel holds about 83,000 compounds, 20% with a hit somewhere; the sample as a whole holds those more often.
Field: growth. Provide a value for each of the compounds that follow.
Answers are plain numbers, in %.

Some solved cases for reference:
{"compound": "CCN1CCN(Cc2ccc(NC(=O)Nc3ccc(-n4ccc5c(NC(=O)c6ccccc6)nccc54)cc3)cc2C(F)(F)F)CC1", "growth / %": -48.4}
{"compound": "Cc1ccc([C@H]2c3[nH]c4ccccc4c3C[C@H]3C(=O)N(CCCCCCC(=O)NO)CC(=O)N23)cc1", "growth / %": 52.6}
{"compound": "Cc1ccc(C)c2c1SC1=NNC(Oc3ccc(Cl)cc3)=C(C#N)C(=N)N12", "growth / %": 103}
{"compound": "COc1ccc(-c2nc3c(c(-c4ccc(Cl)cc4)nn3-c3ccccc3)c(-c3ccc(O)cc3)c2C#N)cc1", "growth / %": 27.6}

Below is a list of compounds. For each, state its recorded growth.
1. O=C1CCCN1C1CCN2CCCc3cccc1c32 (stereo not drawn)
2. Nc1c(C(=O)C[C@@H](N)CO)ccc2c1C(=O)CCO2

Result ::
1. 101
2. 41.3

Below is a list of compounds. For each, state its recorded growth.
1. O/N=C1\c2ccccc2-c2ccc(Br)cc21
2. COC(=O)OC1C(O[C@H]2C[C@H]3[C@@H]4CC=C5C[C@@H](O)CC[C@]5(C)[C@H]4CC[C@]3(C)[C@H]2[C@H](C)C(=O)CCC(C)C)OCC(O)C1OC1OCC(O)C(O)C1OC(=O)c1ccc(OC)cc1 (stereo partly drawn)

Result ::
1: 97.8; 2: -58.1

====

Field: growth. Provide a value for each of the compounds that follow.
# Tested on: ACHN renal
# assay: NCI-60 one-dose screen, 48 h (100 = growth as untreated, 0 = no growth, -100 = all killed)
# conditions: 10 µM unless noted
This is part of a sample that, as a whole, favours compounds with a hit. Of some 83,000 tested, about 20% had one in any assay.
One number for each entry, in %.

Some solved cases for reference:
{"compound": "CC(=O)CC(c1ccc([N+](=O)[O-])cc1)c1c(O)c2ccccc2oc1=O (stereo not given)", "growth [%]": 98.1}
{"compound": "CC(C)(C)[Si](C)(C)OC1[C@@H](O[Si](C)(C)C(C)(C)C)[C@@H](CNC(=O)NC(=O)NC(=O)CI)O[C@H]1n1cnc2c(NC(=O)Nc3ccccc3)ncnc21 (stereo not given in full)", "growth [%]": -22.7}
{"compound": "CN(C)c1ccc(/C=C\\c2cccc[n+]2C)cc1", "growth [%]": 77.3}
{"compound": "O=C(CCl)N1c2ccccc2Oc2ccc3ccccc3c21", "growth [%]": -95.9}

Please look at the following compound next.
Query :: # return growth for CCC(=O)NC1=C(Cl)C(=O)C(NC(=O)CC)=C(Cl)C1=O , test system: ACHN renal
Result :: 21.2

====

# Tested on: MALME-3M melanoma
# assay: NCI-60 one-dose screen, 48 h
# conditions: 10 µM unless noted
This is part of a sample that, as a whole, favours compounds with a hit. Of some 83,000 tested, about 20% had one in any assay. Calls of active or inactive are those of the source. The calls were made as follows: active = growth percent below 10; inactive = the rest.
Choose the fitting class; nothing outside active, inactive is accepted.

Field: example entries. Status: answers known.
{"molecule": "COc1ccc(C(=O)O)cc1.[Ag]", "target": "MALME-3M melanoma", "class_label": "active"}
{"molecule": "CC(C)CCC(=O)[C@@H](C)[C@H]1[C@@H](OC2OCC(O)C(O)C2NS(C)(=O)=O)C[C@H]2[C@@H]3CC=C4C[C@@H](O)CC[C@]4(C)[C@H]3CC[C@]12C (stereo not given in full)", "target": "MALME-3M melanoma", "class_label": "active"}
{"molecule": "O=[N+]([O-])c1ccc(SSc2ccc([N+](=O)[O-])cc2Cl)c(Cl)c1", "target": "MALME-3M melanoma", "class_label": "inactive"}
{"molecule": "CC(C)[C@@]12C[C@@H](OC(=O)C3CO3)[C@@](C)(O1)[C@@H]1CC[C@@H](C)[C@H]1[C@@H]2OC(=O)/C=C/c1ccccc1 (stereo not given in full)", "target": "MALME-3M melanoma", "class_label": "inactive"}
{"molecule": "C=C1C(=O)O[C@H]2[C@H]1CC/C(COC(=O)NCc1[nH]nc3ccccc13)=C\\CC[C@@]1(C)O[C@@H]21", "target": "MALME-3M melanoma", "class_label": "active"}

Query :: State the result this test recorded for COC(=O)OC1C(O[C@H]2C[C@H]3[C@@H]4CC=C5C[C@@H](O)CC[C@]5(C)[C@H]4CC[C@]3(C)[C@H]2[C@H](C)C(=O)CCC(C)C)OCC(O)C1OC1OCC(O)C(O)C1OC(=O)c1ccc(OC)cc1 (stereo not given in full) .
Result :: active

Query :: State the result this test recorded for O=C1N(Cc2ccccc2Cl)c2ccccc2C12NN=C(c1ccccc1)S2 (stereo not given) .
Result :: inactive

Query :: State the result this test recorded for c1cc(C2CCCCC2)ccc1-c1cnc2nonc2n1 .
Result :: inactive

Query :: State the result this test recorded for CC1=C(/C=C/C(C)=C/C=C(C(=O)O)\C(C)=C\C(=O)O)C(C)(C)CCC1 .
Result :: inactive

Query :: State the result this test recorded for CN(C)c1ccc(/C=C\c2cccc[n+]2C)cc1 .
Result :: inactive

Query :: State the result this test recorded for O=C(/C=C/c1ccccc1Br)c1cccc(OCCCCOc2cccc(C(=O)/C=C/c3ccccc3Br)c2)c1 .
Result :: inactive

Query :: State the result this test recorded for CCOc1cc(/C=N\NC(=O)C[N+](C)(C)C)ccc1O .
Result :: inactive

Query :: State the result this test recorded for C[N+](C)(C)CCCCCCCCCC[N+](C)(C)C .
Result :: inactive

Query :: State the result this test recorded for CC(C)[C@@]12C[C@@H](OC(=O)[C@H]3CO3)[C@@](C)(O1)[C@@H]1CC[C@@H](C)[C@H]1[C@@H]2OC(=O)/C=C/c1ccccc1 .
Result :: inactive

Query :: State the result this test recorded for CC1OC(n2c3ccccc3c3c4c(c5c6ccccc6[nH]c5c32)C(=O)N(CCN[C@H]2CCC[C@@H]2N)C4=O)CC(O)C1O (stereo not given in full) .
Result :: inactive

Query :: State the result this test recorded for CCN(CC)c1ccc(/C=N/NC(=O)c2ccc(S(C)(=O)=O)cc2)c(O)c1 .
Result :: inactive

Query :: State the result this test recorded for CCCCCCCCOC(=O)C(C)OC(=O)OCCOCCOC(=O)OC(C)C(=O)OCCCCCCCC (stereo not given) .
Result :: inactive

Query :: State the result this test recorded for COc1cc2c(cc1OC)-c1cc(OC)c(OC)cc1C(CN(C)C)C2 (stereo not given) .
Result :: inactive

Query :: State the result this test recorded for O/N=C/c1ccncc1 .
Result :: inactive

Query :: State the result this test recorded for O=C(CC(=O)C(F)(F)C(F)(F)C(F)(F)F)c1cc2ccccc2o1 .
Result :: inactive

Query :: State the result this test recorded for Nc1ccc(C2=NNC(=O)Cc3cc4c(cc32)OCCO4)cc1Cl .
Result :: inactive

Query :: State the result this test recorded for Nc1c(C(=O)C[C@@H](N)CO)ccc2c1C(=O)CCO2 .
Result :: inactive

Query :: State the result this test recorded for OC(COCc1ccccc1)COCc1ccccc1 .
Result :: inactive

Query :: State the result this test recorded for CC(C)N(C(=S)SSC(=S)N(C(C)C)C(C)C)C(C)C .
Result :: inactive

Query :: State the result this test recorded for COc1ccc2nc3ccccc3c(NCc3ccc(Cl)cc3)c2c1 .
Result :: active

Query :: State the result this test recorded for CCS(=O)(=O)Nc1cccc(Nc2c3cccc(C)c3nc3c(C)cccc23)c1OC .
Result :: inactive

Query :: State the result this test recorded for CC(=O)Cc1ccccn1 .
Result :: inactive

Query :: State the result this test recorded for C[N+](C)(C)CC(=O)N/N=C\c1ccco1 .
Result :: inactive

Query :: State the result this test recorded for C#CCNc1nc(NCCNC(=O)CCl)nc(N(C)CCCCc2ccccc2)n1 .
Result :: inactive

Query :: State the result this test recorded for C[C@@H]1N=C(c2ccc3ccccc3c2)Nc2nc3ccccn3c2C1=O .
Result :: inactive
